biological target: EPHA1 (human); experiment: Caliper, Mobility shift assay off-chip; details: compound 0.2 µM
ENDPOINT_NAME: inhibition
Write the numeric value and append its unit.

Sample records with inhibition:
INSERT INTO results (chemical_smiles, reading) VALUES
  ('CNC(=O)c1cc(Oc2ccc(NC(=O)Nc3ccc(Cl)c(C(F)(F)F)c3)cc2)ccn1', '8%'),
  ('Cc1ccc(Nc2nccc(N(C)c3ccc4c(C)n(C)nc4c3)n2)cc1S(N)(=O)=O', '15.3%'),
  ('COc1cc2c(Oc3ccc4[nH]c(C)cc4c3F)ncnc2cc1OCCCN1CCCC1', '6.5%');

Please turn your attention to the following entry.
Lab note: CCN(CC)CCNC(=O)c1c(C)[nH]c(/C=C2\C(=O)Nc3ccc(F)cc32)c1C gave inhibition of 8.2%
